Please go through the items and note down their viability at 48 h, 3 µM.
# MEASUREMENT_NOTES: in vitro
# TEST_PARAMETERS: human, HepG2-A16-CD81EGFP cells, uninfected
Write the value in % as a bare number.

Query :: Quick one: viability at 48 h, 3 µM for CCOc1ccc(NC(=O)CN2C(=O)NC(C)(c3ccc(OC(F)F)cc3)C2=O)cc1 (stereo not drawn) ?
Result :: 103

Query :: Proceed to `CC(C)c1ccc(CC(=O)N2CCCc3ncc(C(=O)Nc4cccnc4)cc32)cc1`
Result :: 35.6

Query :: Try this compound too: CC1Cc2nc(SCC(=O)Nc3ccc4c(c3)OCO4)n(-c3ccc(F)cc3)c(=O)c2S1 (stereo not drawn)
Result :: 93

Query :: Another compound to check: `CCOC(=O)c1c(C)oc2c1C(=O)c1ccccc1C2=O`
Result :: 99

Query :: Next up: `CCOC(=O)c1c(CN(C)C)n(-c2ccc(C)cc2)c2cc(Br)c(O)cc12`
Result :: 101

Query :: Subsequent entry: CCN(CC)CCCC(C)Nc1cc(C=Cc2ccccc2Cl)nc2cc(Cl)ccc12 (stereo not drawn)
Result :: 99

Query :: And what about the compound `COc1ccc2cc3cc(C(=O)NCCC(C)C)oc3nc2c1` ?
Result :: 101

Query :: CCc1ccc(C2Sc3ccccc3N=C3C2=C(O)c2ccccc23)cc1 (stereo not drawn) , same question.
Result :: 105

Query :: Field entry: `Cc1ccc(S(=O)(=O)NC(=O)Nc2ccc(N(C)C)cc2)cc1`
Result :: 99

Query :: And the next one, `CCCc1cc(=O)oc2cc(C)cc(OCC(=O)Nc3ccccn3)c12` ?
Result :: 111

Query :: // same read-out, input: Cn1c(S)nc2sc3c(c2c1=O)CCC(C(C)(C)C)C3 (stereo not drawn)
Result :: 107

Query :: Another compound to look at: `ClC(Cl)(Cl)c1nc2ccccc2n2nncc12`
Result :: 95

Query :: Moving on to the next compound: `Cc1cccc(NC2=C/C(=N\S(=O)(=O)c3cccs3)c3ccccc3C2=O)c1`
Result :: 95

Query :: Same read-out for `CCOC(=O)c1nnn(-c2nonc2-n2cccc2)c1CN1CCC(C(=O)OCC)CC1` ?
Result :: 103

Query :: Try this compound too: COc1ccc(Cl)cc1[S+](=O)([O-])N1CCC2(CCCNC2)C1 (stereo not drawn)
Result :: 108

Query :: Please give the result for `O=C(Nc1nc(-c2ccccn2)cs1)Nc1ccc(F)cc1F` too.
Result :: 79

Query :: // query: `Oc1cc(Cc2ccccc2)cnc1CN1CCCCC1`
Result :: 105

Query :: `CCOc1ccc(NC2=C(OC)C(=O)c3ccccc3C2=O)cc1` ?
Result :: 98

====

# MEASUREMENT_NOTES: in vitro
# TEST_PARAMETERS: human, hepg2-a16-cd81egfp cells
PARAMETER: viability at 3 µM (%)
The response must be a number in % with no trailing unit.

Query :: Any idea what viability at 3 µM was measured for `Oc1ccc(Br)cc1CN1CCN(c2ccccc2)CC1` ?
Result :: 99.8

Query :: // next record COC(=O)C1=C(C)NC(C)=C(C(=O)OCCCN2CCC(c3ccccc3)(c3ccccc3)CC2)C1c1cccc([N+](=O)[O-])c1 (stereo not shown)
Result :: 81

Query :: // next record `Cc1cc(O)c(CN2CCN(c3ccccc3)CC2)cc1C`
Result :: 107

Query :: What do you get for `COc1cccc(OCCn2cc(C(=O)c3ccco3)c3ccccc32)c1` ?
Result :: 106

====

Kindly supply the reported AC50 values for the records listed here.
# Tested on: Plasmodium falciparum Dd2 asexual blood stage parasites
# MEASUREMENT_NOTES: microbe, parasite or virus in culture
# Parameters: species or system Plasmodium falciparum Dd2 in human erythrocytes; single determination (one 11-point concentration-response curve)
# TEST_PARAMETERS: Plasmodium falciparum, DD2, Erythrocyte, 72 h; read-out: AC50

Query :: Name the reported AC50 value associated with the compound `Cc1cc(Nc2sc(C(=O)c3ccc(F)cc3)c(N)c2C(=O)Nc2ccc(F)cc2)ccc1Cl`
Result :: 0.75 µM

Query :: For `Cc1csc(Nc2ccc3c(n2)CN(Cc2ccccc2C)C(=O)CO3)n1` then?
Result :: 19.3 µM

Query :: Ok, now `COc1ccc(-c2c3c(nc4sc(C(=O)Nc5ccc(F)cc5)c(N)c24)CC(C)(C)CC3=O)cc1`
Result :: 0.944 µM

Query :: Then this compound: `O=C(c1cccc(Cl)c1)N1CCC(c2nc(O)c3nnn(Cc4ccc(F)cc4F)c3n2)CC1`
Result :: 5.96 µM

Query :: Similarly, `CCC1=Nc2cc(C(=O)NCc3ccco3)ccc2Sc2ccc(C)cc21` ?
Result :: 8.41 µM

Query :: Do the same for `Cc1cccc(N2CCN(c3cccc(C)c3)C2c2cccnc2)c1` please
Result :: 5.96 µM

Query :: Do the same for `Clc1ccc2c(NCc3ccccn3)ccnc2c1` please
Result :: 2.11 µM

Query :: Can you check CCOc1cccc(C2c3[nH]c4ccccc4c3CCN2C(=O)CSCc2ccc(F)cc2)c1 (stereo not drawn) next?
Result :: 15 µM

Query :: Now consider `COc1ncc(-c2cc(C(=O)NCc3c(C)cc(C)[nH]c3=O)c3c(c2)N(C(C)C)CCO3)cn1` and answer again.
Result :: 9.44 µM

Query :: Follow-up item: O=C(NCCCN1CCc2ccccc2C1)C1Cn2cccc2C(=O)N1Cc1ccccc1 (stereo not drawn)
Result :: 9.44 µM

Query :: Further, for `CCc1nn2cc(C(=O)c3cc(C)ccc3O)cnc2c1-c1ccc(F)cc1` ?
Result :: 9.44 µM

Query :: Follow-up entry: `CCOC(=O)c1cn(CC)c2cc(N3CCSCC3)c(F)cc2c1=O`
Result :: 1.68 µM

Query :: Another compound to look at: COc1cccc(CN2C(=O)OC3(CCN(Cc4ccccc4OC)CC3)C2(C)c2cccnc2)c1 (stereo not drawn)
Result :: 4.73 µM

Query :: And then Cc1ccc(CSC2=Nc3ccccc3C3=NC(CC(=O)NCc4ccco4)C(=O)N23)cc1 (stereo not drawn) , what is it?
Result :: 6.68 µM

Query :: Would you kindly repeat that for `CCCN1CCc2c(sc3nc(SC)n(-c4ccccc4)c(=O)c23)C1` ?
Result :: 2.66 µM

Query :: Another: CCOc1ccc(C(C)NC(S)=NC2CCCCC2)cc1OCC (stereo not drawn)
Result :: 0.211 µM

Query :: Same read-out for CC1(c2ccccc2)N(Cc2ccccc2)C(=O)OC12CCN(Cc1cccc(O)c1)CC2 (stereo not drawn) ?
Result :: 8.41 µM

Query :: How about `Cc1ccccc1OCCSc1nc2ccc(NC(=O)c3ccccc3)cc2s1` ?
Result :: 15 µM

Query :: Now try `O=C(Nc1ccccc1)[C@H]1O[C@H](CCN2CCN(c3ccc(F)cc3)CC2)CC[C@@H]1O` .
Result :: 10.9 µM

Query :: Repeat for the following compound: `CCc1ccc(Oc2c(C(F)(F)F)oc3c(CN4CCN(CC)CC4)c(O)ccc3c2=O)cc1`
Result :: 0.376 µM

Query :: Subsequent entry: `CCOc1ccc(CN2C(=O)c3ccccc3Sc3ccc(C(=O)N4CCN(C)CC4)cc32)cc1`
Result :: 0.299 µM

Query :: Now the same for `Cc1ccc(Oc2c(C(F)(F)F)oc3c(CN4CCC(C)CC4)c(O)ccc3c2=O)cc1`
Result :: 1.68 µM

Query :: For `c1ccc(Cn2c(Sc3nnnn3-c3ccccc3)nnc2-c2ccccc2)cc1` then?
Result :: 7.5 µM

Query :: Another compound to look at: `CCOCCCNc1nc2cc(OC)c(OC)cc2c2nc(-c3ccccc3)nn12`
Result :: 0.211 µM

Query :: Proceed to `C/C(=N\Nc1ncnc2sc(C)c(C)c12)c1ccccn1`
Result :: 1.33 µM

Query :: What do we get for CN1N=C2c3ccccc3CCC2C1c1ccc(F)cc1 (stereo not drawn) ?
Result :: 5.96 µM

Query :: Again, but for `Cc1ccc([S+](=O)([O-])N2CCC3(CCN(Cc4cccs4)c4ccccc4O3)CC2)cc1`
Result :: 18.8 µM

Query :: Now give it for N=c1n(CCN2CCCCC2)c2ccccc2n1CC(O)COc1ccc(Cl)cc1Cl (stereo not drawn) too.
Result :: 4.22 µM

Query :: Param item: CC1=C(C(=O)Nc2ccc(C)cc2C)C(c2cc(Br)ccc2F)n2ncc(C(=O)Nc3ccc(C)cc3)c2N1 (stereo not drawn)
Result :: 1.5 µM

Query :: Then `CCOC(=O)C1CCN(C(=O)c2cc3c(n2C)CCN(Cc2ccccc2)C3)CC1` ?
Result :: 10.6 µM

Query :: Field entry: `Oc1c(CN2CCCC2)cc(COCc2ccccc2)c2cccnc12`
Result :: 6.68 µM

Query :: Likewise for Cc1ccc(-c2cc(C(F)F)n3ncc(C(=O)N4CCCCC4c4cccnc4)c3n2)cc1 (stereo not drawn) ?
Result :: 2.37 µM

Query :: Would you mind doing `CCCOc1ccc(CCc2nnc(S)n2Cc2ccccc2)cc1` as well?
Result :: 5.31 µM
